Entry source: patent US8148373B2

# experimental.target: human muscarinic acetylcholine M3 receptor (M3-ACh) (Homo sapiens, UniProt P20309)
# Construct: expressed in transfected cells; host or cells: CHO-K1 (Chinese Hamster Ovary) cell membranes
# Sequence (P20309 whole entry): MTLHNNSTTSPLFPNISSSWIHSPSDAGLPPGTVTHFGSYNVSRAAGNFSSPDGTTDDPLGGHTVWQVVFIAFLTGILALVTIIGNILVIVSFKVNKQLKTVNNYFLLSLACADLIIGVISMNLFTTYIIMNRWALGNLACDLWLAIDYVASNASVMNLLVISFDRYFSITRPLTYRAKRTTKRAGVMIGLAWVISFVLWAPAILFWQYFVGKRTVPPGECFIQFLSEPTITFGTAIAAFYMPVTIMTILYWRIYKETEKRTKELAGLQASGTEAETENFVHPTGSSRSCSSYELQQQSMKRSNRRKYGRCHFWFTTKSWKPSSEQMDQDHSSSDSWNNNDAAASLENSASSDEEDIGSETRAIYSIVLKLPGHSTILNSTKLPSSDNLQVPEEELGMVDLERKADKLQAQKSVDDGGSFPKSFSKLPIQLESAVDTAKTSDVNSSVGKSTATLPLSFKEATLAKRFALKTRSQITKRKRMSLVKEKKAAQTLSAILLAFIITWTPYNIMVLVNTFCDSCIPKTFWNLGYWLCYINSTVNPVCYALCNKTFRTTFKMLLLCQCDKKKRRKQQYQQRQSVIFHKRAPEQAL
# experiment.notes: Muscarinic 3 Receptor Binding Assay, % inhibition specific binding at 1 μM
# study.conditions: 1 μM compound, % inhibition specific [3H]-NMS binding
outcome.measure: inhibition at 1 µM (%)
Provide only the numeric value, understood in %.

Exercise: Please look at this compound and report its inhibition at 1 µM: O=C(c1[nH]nc2c1CCCC2)N1CCOC2(CCN(Cc3cc(F)cc(CCNC[C@H](O)c4ccc(O)c5[nH]c(=O)sc45)c3)CC2)C1
Solution: 41

Exercise: Please look at this compound and report its inhibition at 1 µM: O=C(c1cccc2[nH]ccc12)N1CCOC2(CCN(Cc3cc(F)cc(CCNC[C@H](O)c4ccc(O)c5[nH]c(=O)sc45)c3)CC2)C1
Solution: 11

Exercise: Please look at this compound and report its inhibition at 1 µM: CC(C)(C)c1nc(C(=O)N2CCOC3(CCN(CCOc4ccc(CNC[C@H](O)c5ccc(O)c6[nH]c(=O)sc56)cc4)CC3)C2)cs1
Solution: 36

Exercise: Please look at this compound and report its inhibition at 1 µM: Cc1ccoc1C(=O)N1CCOC2(CCN(CCOc3ccc(CNC[C@H](O)c4ccc(O)c5[nH]c(=O)sc45)cc3)CC2)C1
Solution: 80

Exercise: Please look at this compound and report its inhibition at 1 µM: Cn1c(C(=O)N2CCOC3(CCN(Cc4cc(F)cc(CCNC[C@H](O)c5ccc(O)c6[nH]c(=O)sc56)c4)CC3)C2)cc2ccccc21
Solution: 34

Exercise: Please look at this compound and report its inhibition at 1 µM: Cc1cc(CC(=O)N2CCOC3(CCN(CCCCCCCCCNC[C@H](O)c4ccc(O)c5[nH]c(=O)sc45)CC3)C2)on1
Solution: 88

Exercise: Please look at this compound and report its inhibition at 1 µM: Cc1occc1C(=O)N1CCOC2(CCN(Cc3cc(F)cc(CCNC[C@H](O)c4ccc(O)c5[nH]c(=O)sc45)c3)CC2)C1
Solution: 41

Exercise: Please look at this compound and report its inhibition at 1 µM: O=C(c1ccc2[nH]ccc2c1)N1CCOC2(CCN(Cc3cc(F)cc(CCNC[C@H](O)c4ccc(O)c5[nH]c(=O)sc45)c3)CC2)C1
Solution: 27

Exercise: Please look at this compound and report its inhibition at 1 µM: Cc1ccsc1C(=O)N1CCOC2(CCN(CCOc3ccc(CNC[C@H](O)c4ccc(O)c5[nH]c(=O)sc45)cc3)CC2)C1
Solution: 56

Exercise: Please look at this compound and report its inhibition at 1 µM: Cc1csc(C(=O)N2CCOC3(CCN(CCOc4ccc(CNC[C@H](O)c5ccc(O)c6[nH]c(=O)sc56)cc4)CC3)C2)c1
Solution: 92

Exercise: Please look at this compound and report its inhibition at 1 µM: Cc1cc(C(=O)N2CCOC3(CCN(CCCCCCCCCNC[C@H](O)c4ccc(O)c5[nH]c(=O)sc45)CC3)C2)sc1C
Solution: 91

Exercise: Please look at this compound and report its inhibition at 1 µM: O=C(c1ccc(Cl)s1)N1CCOC2(CCN(CCOc3ccc(CNC[C@H](O)c4ccc(O)c5[nH]c(=O)sc45)cc3)CC2)C1
Solution: 91

Exercise: Please look at this compound and report its inhibition at 1 µM: O=C(c1c[nH]c2ccccc12)N1CCOC2(CCN(Cc3cc(F)cc(CCNC[C@H](O)c4ccc(O)c5[nH]c(=O)sc45)c3)CC2)C1
Solution: 13

====

# experimental.target: Adrenergic β2 (H292 cells) (Homo sapiens, UniProt P07550)
# Construct: endogenous in cells; host or cells: H292 cells
# Sequence (P07550 whole entry): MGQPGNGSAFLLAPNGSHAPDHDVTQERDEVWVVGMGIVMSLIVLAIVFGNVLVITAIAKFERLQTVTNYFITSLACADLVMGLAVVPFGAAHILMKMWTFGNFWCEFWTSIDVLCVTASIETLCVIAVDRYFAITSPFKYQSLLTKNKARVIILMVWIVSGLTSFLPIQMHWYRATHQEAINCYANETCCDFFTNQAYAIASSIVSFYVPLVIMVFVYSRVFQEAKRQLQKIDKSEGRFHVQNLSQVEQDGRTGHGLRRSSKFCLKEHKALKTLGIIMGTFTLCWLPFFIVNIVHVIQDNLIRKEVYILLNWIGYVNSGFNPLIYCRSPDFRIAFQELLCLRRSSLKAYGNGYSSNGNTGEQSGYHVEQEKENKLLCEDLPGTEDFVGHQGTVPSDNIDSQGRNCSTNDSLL
# experiment.notes: Adrenergic β2 Mediated cAMP Production, single concentration 1 μM
# Format: cell-based
# study.conditions: NCI-H292, 1 μM compound, percentage of the maximum response generated by 1E-07M formoterol, read-out: β2 (% effect at 1 μM)
outcome.measure: activation at 1 µM (%)
Provide only the numeric value, understood in %.

Before answering, review these 5 worked examples.
INSERT INTO assay_data (given_smiles, result_number) VALUES
  ('CC(C)(C)c1nc(C(=O)N2CCOC3(CCN(CCCCCCCCCNC[C@H](O)c4ccc(O)c5[nH]c(=O)sc45)CC3)C2)cs1', 88),
  ('Cc1sccc1C(=O)N1CCOC2(CCN(CCCCCCCCCNC[C@H](O)c3ccc(O)c4[nH]c(=O)sc34)CC2)C1', 85),
  ('O=C(N1CCOC2(CCN(Cc3cc(F)cc(CCNC[C@H](O)c4ccc(O)c5[nH]c(=O)sc45)c3)CC2)C1)C1(c2ccccc2)CCCC1', 90),
  ('Cc1cccc(C(=O)N2CCOC3(CCN(CCOc4ccc(CNC[C@H](O)c5ccc(O)c6[nH]c(=O)sc56)cc4)CC3)C2)n1', 62),
  ('O=C(CCc1nc2ccccc2[nH]1)N1CCOC2(CCN(Cc3cc(F)cc(CCNC[C@H](O)c4ccc(O)c5[nH]c(=O)sc45)c3)CC2)C1', 111);

Now take the following compound into account.
Exercise: Provide activation at 1 µM, system Adrenergic β2 (H292 cells) (Homo sapiens, UniProt P07550), entry CCOc1ccc(O)c(C(=O)N2CCOC3(CCN(Cc4cc(F)cc(CCNC[C@H](O)c5ccc(O)c6[nH]c(=O)sc56)c4)CC3)C2)c1
Solution: 102

====

# reported IC50; entries follow
# experimental.target: human muscarinic acetylcholine M3 receptor (M3-ACh) (Homo sapiens)
# Construct: expressed in transfected cells; host or cells: CHO-K1 (Chinese Hamster Ovary) cell membranes
# experiment.notes: Muscarinic 3 Receptor Binding Assay ([3H]NMS competition, SPA)
# study.conditions: [3H]NMS 0.1 nM, CHO-K1 cell membranes, 16 hours at room temperature; read-out: M3 pIC50 (converted)
Where a name gives a salt, the structure may show the parent alone.
Phrase the answer as number then unit, nothing more needed.

Before answering, review these 10 worked examples.
INSERT INTO measurements (compound, result) VALUES
  ('CC(C)c1nc(C(=O)N2CCOC3(CCN(CCOc4ccc(CCNC[C@H](O)c5ccc(O)c6[nH]c(=O)ccc56)c(F)c4F)CC3)C2)cs1 [Example 77, ditrifluoroacetate]', '2.51 nM'),
  ('CC(C)c1cc(C(=O)N2CCOC3(CCN(Cc4cccc(CCNC[C@H](O)c5ccc(O)c6[nH]c(=O)sc56)c4)CC3)C2)cs1 [Example 82, ditrifluoroacetate]', '0.398 nM'),
  ('CC(C)c1cc(C(=O)N2CCOC3(CCN(Cc4cccc(CCNC[C@H](O)c5ccc(O)c6[nH]c(=O)sc56)c4F)CC3)C2)cs1 [Example 70, ditrifluoroacetate]', '3.16 nM'),
  ('Cc1nc(C(=O)N2CCOC3(CCN(CCOc4cccc(CCNC[C@H](O)c5ccc(O)c6[nH]c(=O)sc56)c4)CC3)C2)cs1 [Example 24, ditrifluoroacetate]', '25.1 nM'),
  ('CC(C)c1nc(C(=O)N2CCOC3(CCN(Cc4ccc(C(F)(F)F)c(CCNC[C@H](O)c5ccc(O)c6[nH]c(=O)ccc56)c4)CC3)C2)cs1 [Example 273, ditrifluoroacetate]', '79.4 nM'),
  ('Cc1nc(C(=O)N2CCOC3(CCN(Cc4cccc(CCOCCC(=O)N(CCNC[C@H](O)c5ccc(O)c6[nH]c(=O)sc56)C5CCCCC5)c4)CC3)C2)cs1 [Example 277, ditrifluoroacetate]', '0.1 nM'),
  ('O=C(c1csc(-c2ccccc2)n1)N1CCOC2(CCN(CCCCCCCCCNC[C@H](O)c3ccc(O)c4[nH]c(=O)sc34)CC2)C1 [Example 113, formate]', '20 nM'),
  ('CCc1cc(C(=O)N2CC(C)(C)OC3(CCN(Cc4cccc(CCNC[C@H](O)c5ccc(O)c6[nH]c(=O)ccc56)c4)CC3)C2)cs1 [Example 272, ditrifluoroacetate]', '794 nM'),
  ('CCc1ccc(C(=O)N2CCOC3(CCN(Cc4cccc(CCNC[C@H](O)c5ccc(O)c6[nH]c(=O)ccc56)c4)CC3)C2)s1 [Example 12, ditrifluoroacetate]', '1 nM'),
  ('CC(C)c1nc(C(=O)N2CCOC3(CCN(CCCCCC(C)(C)CNC[C@H](O)c4ccc(O)c5[nH]c(=O)sc45)CC3)C2)cs1 [Example 102, formate]', '1 nM');

Exercise: Please look at this compound and report its IC50: Cc1nc(C(=O)N2CCOC3(CCN(Cc4cc(F)cc(CCNC[C@H](O)c5ccc(O)c6[nH]c(=O)ccc56)c4)CC3)C2)cs1 [Example 28, ditrifluoroacetate]
Solution: 2.51 nM

====

# experimental.target: Adrenergic β2 (H292 cells) (Homo sapiens, UniProt P07550)
# Construct: endogenous in cells; host or cells: H292 cells
# experiment.notes: Assay for Adrenergic β2 Mediated cAMP Production (concentration response, AlphaScreen cAMP detection)
# Type: cell-based
# study.conditions: cAMP production, 60 minutes at room temperature, 300 μM rolipram, read-out: β2 pEC50 (converted)
Where a name gives a salt, the structure may show the parent alone.
One threshold, 0.01 µM, splits the recorded EC50 values: lower ones are Met, equal or higher ones are Not met.

Recorded results for 2 molecules are shown here.
INSERT INTO measurements (molecule, category) VALUES
  ('CC(C)c1nc(C(=O)N2CCOC3(CCN(Cc4cccc(CCNC[C@H](O)c5ccc(O)c6[nH]c(=O)ccc56)c4Cl)CC3)C2)cs1 [Example 81, ditrifluoroacetate]', 'Met'),
  ('Cc1cc(C(=O)N2CCOC3(CCN(CCCCCCCCCNC[C@H](O)c4ccc(O)c5[nH]c(=O)sc45)CC3)C2)cs1 [Example 105, formate]', 'Not met');

Below: the item to evaluate.
Exercise: Given the entry Cc1nc(C(=O)N2CCOC3(CCN(CCc4ccc(CNC[C@H](O)c5ccc(O)c6[nH]c(=O)ccc56)s4)CC3)C2)cs1 [Example 98, ditrifluoroacetate] , would its reported EC50 be below 0.01 µM?
Solution: Not met
